Test system: SK-MEL-28 melanoma
Experiment: NCI-60 one-dose screen, 48 h (100 = growth as untreated, 0 = no growth, -100 = all killed)
Details: 10 µM unless noted
Compounds without any hit were thinned out: in the full panel of roughly 83,000, 20% have a hit.
observed.property: growth (%)
Give bare numbers, in %.

>  <compound>
CCCCc1nc(Cl)c(C2CC(c3ccc(S(N)(=O)=O)cc3)=NN2c2cc(Cl)cc(Cl)c2)[nH]1 (stereo unspecified)

>  <unit.symbol>
%

>  <growth>
55.2

$$$$

Report growth for each item below.
1. Cc1c2c(cc3c1[nH]c1ccccc13)C=NCC2
2. COc1cc(C2CC(c3ccc(C)cc3)=NN2C=O)ccc1Oc1ccnc2cc(Cl)ccc12 (stereo unspecified)

1. 118
2. 101

Report growth for each item below.
1. c1ccc2oc(-c3cnc4nonc4n3)cc2c1
2. Clc1cc2nc(-c3ccccc3)c(-c3ccccc3)nc2cc1Cl

1. 120
2. 101

Look up growth of Cc1ccccc1C1CC(=O)c2ccccc2C1C (stereo unspecified) and report it.
107

###

Tested on: KM12 colon
Assay: NCI-60 one-dose screen, 48 h (100 = growth as untreated, 0 = no growth, -100 = all killed)
Conditions: 10 µM unless noted
The panel holds about 83,000 compounds, 20% with a hit somewhere; the sample as a whole holds those more often. The source made the active and inactive calls. The calls were made as follows: active = growth percent below 10; inactive = the rest.
observed.property: growth

Use these answered entries as a reference point.
>  <compound>
COc1ccc(/C=C(\C#N)c2cc(OC)c(OC)c(OC)c2)cc1

>  <growth>
6.76% (active)

$$$$
>  <compound>
CN(C)CC(=O)c1ccc2cc(Br)c3ccccc3c2c1

>  <growth>
63.7% (inactive)

$$$$
>  <compound>
CCCCOc1nc2ccc(C)cc2cc1/C=C/C(=O)/C=C(O)/C=C/c1cc2cc(C)ccc2nc1OCCCC

>  <growth>
102% (inactive)

$$$$
>  <compound>
O=c1c2cc(Cl)ccc2oc2ccc(OCCCCCN3CCCCC3)cc12

>  <growth>
65% (inactive)

$$$$
>  <compound>
CC(=O)c1ccc(Br)c([N+](=O)[O-])c1

>  <growth>
107% (inactive)

$$$$

Report growth for each item below.
1. O=C1OC(/C=C/c2ccccc2)=NC/1=C/c1ccccc1[N+](=O)[O-]
2. Cc1csc(N/N=C/c2ccncc2)n1

["102% (inactive)", "106% (inactive)"]

Report growth for each item below.
1. CC(=O)O[C@@H]1CC2C(C)(C)CCCC2(C)C2=C1C(=O)C(C(C)C)=CC2=O (stereo not given in full)
2. COc1cccc(/C(C)=N/NC(=O)CSc2nc3ccccc3c(=O)n2CCc2ccc(S(N)(=O)=O)cc2)c1

["-48.7% (active)", "14% (inactive)"]

Look up growth of `Nc1c(C(=O)Nc2cccc(Cl)c2)sc2nc3c(cc12)C(=O)CCC3` and report it.
21.6% (inactive)

###

System: SN12C renal
Test: NCI-60 one-dose screen, 48 h (100 = growth as untreated, 0 = no growth, -100 = all killed)
Settings: 10 µM unless noted
Compounds without any hit were thinned out: in the full panel of roughly 83,000, 20% have a hit.
Give measured growth for each item. Keep answers brief.
Answers are plain numbers, in %.

Use these answered entries as a reference point.
>  <compound>
CC(C)(CCc1ccccn1)C(=O)CCCc1ccccn1

>  <growth / %>
94.8

$$$$
>  <compound>
CCOC(=O)c1ccc2c(c1)[n+](=O)c(C(=O)c1ccc3ccccc3c1)c(C(F)(F)F)n2[O-]

>  <growth / %>
-99.2

$$$$
>  <compound>
COc1cc(C2C(C#N)=C(N)Oc3cc4c(cc32)OCO4)cc2c1OCO2 (centres undefined)

>  <growth / %>
35.2

$$$$

Report growth for each item below.
1. O=C(Nc1cccc(-n2ccc3c(NC(=O)c4ccccc4)nccc32)c1)c1ccc(N2CCOCC2)c(C(F)(F)F)c1
2. Cc1ccccc1C1CC(=O)c2ccccc2C1C (centres undefined)
3. COc1ccc(-n2c(COc3ccc(F)cc3)n[nH]c2=S)cc1
4. COc1ccc(C(=O)N2N=C(c3ccc(F)cc3)CC2c2cn(-c3ccccc3)nc2-c2ccccc2)cc1 (centres undefined)
5. COc1cc(/C=C\c2cc(/C=C\c3ccc(O)c(OC)c3)n(C(=O)Nc3ccc(C(F)(F)F)cc3)n2)ccc1O
6. CCOC(=O)c1cc(N)nc2ccccc12
7. COc1cc(Nc2ncccc2/C=C/C(=O)c2cc(OC)c(OC)c(OC)c2)cc(OC)c1OC
8. COc1ccc(C(=O)OC2C(OC3C(O)COC(O[C@H]4C[C@H]5[C@@H]6CC=C7C[C@@H](O)CC[C@]7(C)[C@H]6CC[C@]5(C)[C@H]4[C@H](C)C(=O)CCC(C)C)C3OC(=O)C(C)C)OCC(O)C2O)cc1 (some centres undefined)

[34, 99.1, 84.4, 63, 36.9, 109, 79.3, 57.3]

Report growth for each item below.
1. CCOC(=O)Cc1cc(Br)c(OCc2ccccc2)c(Br)c1
2. COc1ccc(-c2nn(C(=O)NCCN(C)C)cc2-c2ccncc2)cc1Cl
3. CN(C)c1ccc(C2(Cl)c3ccccc3N(C)c3ccccc32)cc1
4. CC(C)(C)[Si](C)(C)OC1[C@@H](O[Si](C)(C)C(C)(C)C)[C@@H](CNC(=O)NC(=O)NC(=O)CCl)O[C@H]1n1cnc2c(NC(=O)Nc3ccccc3)ncnc21 (some centres undefined)
5. Cc1ccc(Nc2cc(Cl)c([N+](=O)[O-])cc2[N+](=O)[O-])cc1
6. COc1cc2ncnc(Nc3ccc(S(=O)(=O)Nc4cc(C)on4)cc3)c2cc1OCCCN1CCN(c2ccc([N+](=O)[O-])cc2)CC1
7. CC(C)c1nc2ccccc2n1CC(=O)N/N=C/c1cccc(O)c1

1. 88.9
2. 49.6
3. 19.1
4. 54.6
5. 24.6
6. 102
7. 94.1

Look up growth of `Cc1[nH]c2ccccc2c1C1=CC(=O)C=CC1=O` and report it.
90.8

###

Give measured growth for each item. Keep answers brief.
Tested on: SW-620 colon
Assay: NCI-60 one-dose screen, 48 h (100 = growth as untreated, 0 = no growth, -100 = all killed)
Conditions: 10 µM unless noted
About 83,000 compounds went through this panel and 20% of them were active in at least one assay; those are over-represented in the sample as a whole.
Give bare numbers, in %.

Use these answered entries as a reference point.
>  <molecule>
O=C1CCCN1C(O)CCN(Cc1ccccc1)Cc1ccc(Cl)cc1 (stereo unspecified)

>  <assayed.system>
SW-620 colon

>  <growth / %>
100

$$$$
>  <molecule>
Cn1c(=O)c2c(nc(N/N=C/c3ccccc3Cl)n2C)n(C)c1=O

>  <assayed.system>
SW-620 colon

>  <growth / %>
108

$$$$
>  <molecule>
CC(C)(C)[Si](C)(C)OC1[C@@H](O[Si](C)(C)C(C)(C)C)[C@@H](CNC(=O)NC(=O)NC(=O)CI)O[C@H]1n1cnc2c(NC(=O)Nc3ccccc3)ncnc21 (stereo partly specified)

>  <assayed.system>
SW-620 colon

>  <growth / %>
76.1

$$$$
>  <molecule>
CN1C(=O)N(C)C2C1NN=c1s/c(=C\c3ccc(Br)cc3)c(=O)n12 (stereo unspecified)

>  <assayed.system>
SW-620 colon

>  <growth / %>
20

$$$$
>  <molecule>
C=C1C[C@@]2(C)C(CC[C@]3(C)C2CC=C2C4CC(C)(C)C[C@@H](OC(=O)/C(C)=C\C)[C@]4(C(=O)O)CC[C@]23C)C(C)(C)C1=O (stereo partly specified)

>  <assayed.system>
SW-620 colon

>  <growth / %>
-29.1

$$$$

Report growth for each item below.
1. O=C1OCC2=C1C(c1ccccc1)c1cc3c(cc1N2CCO)OCO3 (stereo unspecified)
2. Cc1cc2nc(CN)[nH]c2cc1C

1: 23.6; 2: 108

Report growth for each item below.
1. COc1cccc(/C=N\Nc2ccc([N+](=O)[O-])cn2)c1O
2. CN1C(=O)N(C)C2C1NN=c1s/c(=C\c3ccc(C(F)(F)F)cc3)c(=O)n12 (stereo unspecified)
3. Cc1ccc(NC(=O)c2sc3nc4c(cc3c2N)C(=O)CCC4)cc1Cl

[38, 19.1, 113]

Report growth for each item below.
1. N/C(=N\OC(=O)c1ccccc1)C(C(=O)NOC(=O)c1ccccc1)C1CCCCC1 (stereo unspecified)
2. Oc1ccc(-c2nnc3c4[nH]ccc4ncn23)cc1
3. CCCC(CCC)(C(N)=O)C(=O)O
4. COc1cc(Nc2ncccc2/C=C/C(=O)c2cc(OC)c(OC)c(OC)c2)cc(OC)c1OC
5. NC(N)=N/N=C/c1ccc(Cl)cc1
6. CCOC(=O)Cc1cc(Br)c(OCc2ccccc2)c(Br)c1
7. O=C(CSc1nc2c(n1Nc1ccccc1)-c1ccccc1SC2)Nc1nccs1

1. 82.1
2. 108
3. 103
4. 71.9
5. 24.5
6. 113
7. 97.5

Report growth for each item below.
1. COc1ccc(/C=C/c2nc3ccccc3c(=O)n2-c2ccc(C#Cc3ccc(C(C)(C)C)cc3)cc2C)c(OC)c1
2. CCN1CCN(Cc2ccc(NC(=O)Nc3ccc(-n4ccc5c(NC(=O)c6ccccc6)nccc54)cc3)cc2C(F)(F)F)CC1
3. CS(=O)(=O)c1ccc(Cl)c([N+](=O)[O-])c1
4. N=C(N)c1ccc(NCCNc2ccc(C(=N)N)cc2)cc1

[86.7, -11.9, 67.9, 106]
